# measurement.target: Intercellular adhesion molecule (ICAM-1), Integrin alpha-L/beta-2 (Homo sapiens, UniProt P05107+P20701)
# test.protocol: Inhibition of LFA-1 mediated JY-8 cell adhesion to ICAM-1, range(3-10)
# Type: functional, cell-based
endpoint.label: pIC50
Interpret pIC50 as the negative base-10 log of the concentration measured in mol/L.

## Task Data request, read-out pIC50, for Cn1ccc2cc(Sc3ccc(/C=C/C(=O)N4CCC(C(=O)O)CC4)c(C(F)(F)F)c3C(F)(F)F)ccc21
## Result 8.30

---

# measurement.target: Intercellular adhesion molecule (ICAM-1), Integrin alpha-L/beta-2 (Homo sapiens, UniProt P05107+P20701)
# test.protocol: Inhibition of LFA-1 mediated JY-8 cell adhesion to ICAM-1, range (2-2)
# Assay type: functional, cell-based
endpoint.label: pIC50
By convention, pIC50 is the negative base-10 log of a molar concentration.

## Task # input compound: O=C(O)C1CCN(C(=O)/C=C/c2ccc(Sc3ccc4c(c3)OCCO4)c(Cl)c2C(F)(F)F)CC1 ; wanted: its pIC50
## Result 8.70

---

# measurement.target: UniProt P20701
# test.protocol: Inhibition of intercellular adhesion molecule-1 (ICAM-1) binding to recombinant LFA-1, range (4-7)
endpoint.label: IC50 (nM)
Answer in nM, number only, no unit symbol.

## Task What IC50 appears in the records for this compound with UniProt P20701? O=C(O)C1CCN(C(=O)/C=C/c2ccc(Sc3ccc4c(c3)OCCO4)c(Cl)c2C(F)(F)F)CC1
## Result 5

---

# measurement.target: Intercellular adhesion molecule (ICAM-1), Integrin alpha-L/beta-2 (Homo sapiens, UniProt P05107+P20701)
endpoint.label: IC50 (nM)
Record the value in nM, omitting the unit from your answer.

## Task Entry under review: O=C(O)C1CCN(C(=O)/C=C/c2ccc(Sc3ccc4c(c3)OCCO4)c(C(F)(F)F)c2C(F)(F)F)CC1 . Reported IC50?
## Result 0.5

---

# measurement.target: Intercellular adhesion molecule (ICAM-1), Integrin alpha-L/beta-2 (Homo sapiens, UniProt P05107+P20701)
# test.protocol: Inhibition of LFA-1 mediated JY-8 cell adhesion to ICAM-1, range (2-9)
# Type: functional, cell-based
endpoint.label: pIC50
// returns pIC50 (minus log10 of molar concentration), number only

O=C(O)C1CCN(C(=O)/C=C/c2ccc(Sc3ccc4c(c3)OCCO4)c(Cl)c2Cl)CC1 8.22

# context switch: different compound, same pIC50
## Task Bench note: what pIC50 did COc1ccccc1Sc1ccc(/C=C/C(=O)N2CCC(C(=O)O)CC2)c(C(F)(F)F)c1Cl show?
## Result 8.40

---

# measurement.target: Integrin alpha-L (Homo sapiens, UniProt P20701)
# Sequence (P20701 whole entry): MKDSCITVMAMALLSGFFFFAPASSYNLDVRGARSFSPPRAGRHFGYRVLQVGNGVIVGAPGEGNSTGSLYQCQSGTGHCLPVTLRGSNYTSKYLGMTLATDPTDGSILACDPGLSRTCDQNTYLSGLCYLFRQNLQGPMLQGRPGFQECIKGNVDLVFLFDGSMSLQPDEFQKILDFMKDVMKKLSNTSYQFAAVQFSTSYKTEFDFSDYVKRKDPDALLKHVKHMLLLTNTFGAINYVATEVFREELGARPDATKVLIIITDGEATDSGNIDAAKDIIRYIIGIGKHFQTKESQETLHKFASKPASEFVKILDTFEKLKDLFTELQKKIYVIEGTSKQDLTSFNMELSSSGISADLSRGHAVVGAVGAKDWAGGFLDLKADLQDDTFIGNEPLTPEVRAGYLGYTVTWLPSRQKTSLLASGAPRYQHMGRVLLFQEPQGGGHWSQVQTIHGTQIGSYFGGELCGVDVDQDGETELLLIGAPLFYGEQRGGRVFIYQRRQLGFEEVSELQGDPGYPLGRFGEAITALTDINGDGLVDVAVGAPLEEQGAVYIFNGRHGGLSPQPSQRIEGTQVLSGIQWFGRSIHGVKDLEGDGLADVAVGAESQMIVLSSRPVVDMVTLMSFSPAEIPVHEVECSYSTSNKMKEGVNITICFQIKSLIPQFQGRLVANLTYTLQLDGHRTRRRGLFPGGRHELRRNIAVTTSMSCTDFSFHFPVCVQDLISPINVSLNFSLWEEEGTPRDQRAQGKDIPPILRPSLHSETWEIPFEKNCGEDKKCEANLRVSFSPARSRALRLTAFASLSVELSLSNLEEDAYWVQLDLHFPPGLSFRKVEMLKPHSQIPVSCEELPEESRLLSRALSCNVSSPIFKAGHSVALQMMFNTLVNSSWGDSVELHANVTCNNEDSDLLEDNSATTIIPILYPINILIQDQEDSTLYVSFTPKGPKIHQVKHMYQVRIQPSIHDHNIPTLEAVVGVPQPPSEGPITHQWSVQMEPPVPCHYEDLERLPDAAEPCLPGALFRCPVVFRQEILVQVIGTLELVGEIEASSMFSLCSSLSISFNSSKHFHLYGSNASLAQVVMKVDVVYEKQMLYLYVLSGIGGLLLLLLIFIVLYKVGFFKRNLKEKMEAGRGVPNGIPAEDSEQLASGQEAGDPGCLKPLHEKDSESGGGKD
# test.protocol: Inhibition of intercellular adhesion molecule-1 (ICAM-1) binding to recombinant LFA-1, range (6-12)
endpoint.label: IC50 (nM)
Number only, in nM; omit the unit.

## Task Look up IC50: COc1ccccc1Sc1ccc(/C=C/C(=O)N2CCC(C(=O)O)CC2)c(Cl)c1Cl
## Result 8
